Biological target: Full length (FL) 3-Phosphoglycerate Dehydrogenase (PHGDH) (Homo sapiens, UniProt O43175)
Construct: Full length (FL) 3-Phosphoglycerate Dehydrogenase (PHGDH) Diaphorase coupled assay (500 uM NAD)
Sequence (O43175 whole entry): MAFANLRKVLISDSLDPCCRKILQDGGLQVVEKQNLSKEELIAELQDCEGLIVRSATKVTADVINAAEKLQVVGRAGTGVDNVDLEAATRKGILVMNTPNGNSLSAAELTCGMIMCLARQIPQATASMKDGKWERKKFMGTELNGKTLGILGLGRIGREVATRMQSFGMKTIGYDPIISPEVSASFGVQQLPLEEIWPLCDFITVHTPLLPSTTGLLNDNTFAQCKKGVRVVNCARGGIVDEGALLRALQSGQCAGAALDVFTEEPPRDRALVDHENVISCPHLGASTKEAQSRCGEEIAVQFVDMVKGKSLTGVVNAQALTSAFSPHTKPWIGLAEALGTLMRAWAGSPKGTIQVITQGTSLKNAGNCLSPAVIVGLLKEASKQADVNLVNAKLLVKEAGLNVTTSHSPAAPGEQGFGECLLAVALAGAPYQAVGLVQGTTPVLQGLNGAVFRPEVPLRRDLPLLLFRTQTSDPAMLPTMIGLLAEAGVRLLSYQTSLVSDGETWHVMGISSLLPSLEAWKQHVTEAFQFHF
Assay: Full length (FL) PHGDH Diaphorase coupled assay (500 uM NAD)
Assay type: biochemical
Details: 5 nM PHGDH, 30° C., 60 minutes
pIC50: −log10 of the molar value.
Reported property: pIC50

| Compound | Recorded value |
| --- | --- |
| Cc1cc(CC(=O)O)ccc1[C@@H](CO)NC(=O)c1cc2c(Cl)c(Cl)ccc2n1C [Compound I-19] | 6.00 to 8.00 |
| COc1cc2c(cc(C(=O)N[C@H](CO)c3ccc(C(=O)O)cc3F)n2C)c(Cl)c1Cl [Compound I-20] | 6.00 to 8.00 |
| Cn1c(C(=O)NC(C)(C)c2ccc(C(=O)O)cc2)cc2c(Cl)c(Cl)ccc21 [Compound I-35] | 5.30 to 6.00 |
| CC(NC(=O)c1cc2c(Cl)c(Cl)ccc2n1C)c1ccc(CC(=O)O)cc1 (racemic) [Compound I-34] | 6.00 to 8.00 |
| Cn1c(C(=O)NC(c2ccc(C(=O)O)cc2)C2CC2)cc2c(Cl)c(Cl)ccc21 (stereo not drawn) [Compound I-42] | 5.30 to 6.00 |
| COc1ccc2c(cc(C(=O)N[C@H](CO)c3ccc(CC(=O)O)cc3Cl)n2C)c1Cl [Compound I-9] | 6.00 to 8.00 |
| COc1cc2c(cc(C(=O)N[C@H](CO)c3ccc(C(=O)O)cc3F)n2C)c(Cl)c1C [Compound I-12] | 6.00 to 8.00 |
| CC(NC(=O)c1cc2c(Cl)c(Cl)ccc2n1C)c1ccc(CC(=O)O)cc1F (stereo not drawn) [Compound I-31] | 6.00 to 8.00 |

Task item: Quick check: pIC50 of Cn1c(C(=O)N[C@H](CO)c2ccc(C(C)(C)C(=O)O)cc2)cc2c(Cl)c(Cl)ccc21 [Compound I-1] ?
Reply: 6.00 to 8.00

Task item: Quick check: pIC50 of Cn1c(C(=O)N[C@H](CO)c2ccc(CC(=O)O)cc2F)cc2c(Cl)c(Cl)ccc21 [Compound I-32] ?
Reply: 6.00 to 8.00

Task item: Quick check: pIC50 of Cc1cc(C(=O)O)ccc1[C@@H](CO)NC(=O)c1cc2c(Cl)c(Cl)ccc2n1C [Compound I-18] ?
Reply: 6.00 to 8.00

Task item: Quick check: pIC50 of Cn1c(C(=O)NC(CC2CC2)c2ccc(C(=O)O)cc2)cc2c(Cl)c(Cl)ccc21 (stereo not drawn) [Compound I-36] ?
Reply: 5.30 to 6.00
